Test Protocol: chemical genetic growth profiling, strain panel (AID 1159580);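 note: tested at 20 µM; growth read once vehicle control cultures reached saturation at 30 °C; lower values mean less growth of the strain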
Details: S. cerevisiae deletion strains, growth OD, locus YKL085W, strain MDH1
Hit rate of the full screen: of about 5,500 compounds, about 2,000 (36%) were called active. Inconclusive results (about 18%) are left out. Cut-off read from the data, not from the text of the source: active = normalized growth mostly below about 0.91 (no sharp cut-off); inconclusive = no clear call, values can overlap the other calls; inactive = mostly above about 0.92. The list shows a part of the results.
Outcome codes: active, inactive

Compound: COC(=O)[C@]1(C)CC[C@]2(C)CC[C@]3(C)C4=CCc5c(cc(O)c(O)c5C)[C@]4(C)CC[C@@]3(C)C2C1 (some centres not stated)
Category Label: inactive

Compound: Cc1c(O)c(O)cc2c1CC=C1[C@@]2(C)CC[C@@]2(C)C3C[C@](C)(C(=O)O)CC[C@]3(C)CC[C@]12C (some centres not stated)
Category Label: active

Compound: Cc1occc(=O)c1O
Category Label: inactive

Compound: Oc1c(Cl)cc(Cl)c2cccnc12
Category Label: active

Compound: Cc1occc(=O)c1/C=C/O
Category Label: inactive

Compound: Cc1ccsc1/C=C/C1=NCCCN1C
Category Label: inactive

Compound: Oc1c(Br)cc(Br)c2cccnc12
Category Label: active
